- measuredOn: Amine oxidase [flavin-containing] B (Homo sapiens, UniProt P27338)
- Sequence (P27338 whole entry): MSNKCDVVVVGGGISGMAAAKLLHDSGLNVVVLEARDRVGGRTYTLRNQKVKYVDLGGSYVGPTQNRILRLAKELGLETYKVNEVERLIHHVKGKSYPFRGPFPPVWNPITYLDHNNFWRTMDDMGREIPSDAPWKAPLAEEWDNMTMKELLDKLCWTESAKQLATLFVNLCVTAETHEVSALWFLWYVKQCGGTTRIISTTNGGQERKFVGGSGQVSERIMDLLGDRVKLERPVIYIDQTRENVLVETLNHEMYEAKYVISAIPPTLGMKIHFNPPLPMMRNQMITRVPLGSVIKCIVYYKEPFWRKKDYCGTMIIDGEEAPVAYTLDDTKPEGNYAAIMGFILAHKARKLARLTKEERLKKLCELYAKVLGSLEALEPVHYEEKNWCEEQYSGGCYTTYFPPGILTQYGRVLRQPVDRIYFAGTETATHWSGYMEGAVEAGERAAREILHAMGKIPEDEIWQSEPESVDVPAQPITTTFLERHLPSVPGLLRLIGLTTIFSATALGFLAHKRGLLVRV
- testSummary: Inhibition of recombinant human MAO-B
reportedEndpoint: pIC50
The value called pIC50 is obtained by taking minus log10 of the concentration in mol/L.

Exercise: Value lookup for pIC50; key = CCN(C)C(=O)Oc1ccc(/C=C/C(=O)N2CCCCC2)cc1OC
Key: 4.79

Exercise: Value lookup for pIC50; key = CCN(C)C(=O)Oc1ccc(/C=C/C(=O)N2CCc3ccccc3C2)cc1OC
Key: 5.28

Exercise: Value lookup for pIC50; key = CCN(C)C(=O)Oc1ccc(/C=C/C(=O)N(CC)Cc2ccccc2)cc1OC
Key: 5.02

Exercise: Value lookup for pIC50; key = COc1cc(/C=C/C(=O)N2CCN(Cc3ccccc3)CC2)ccc1OC(=O)N(c1ccccc1)c1ccccc1
Key: 4.50

Exercise: Value lookup for pIC50; key = COc1cc(/C=C/C(=O)N2CCC(Cc3ccccc3)CC2)ccc1OC(=O)N(c1ccccc1)c1ccccc1
Key: 4.88

* * *

- measuredOn: Amine oxidase [flavin-containing] A (Homo sapiens)
- Sequence (P21397 whole entry): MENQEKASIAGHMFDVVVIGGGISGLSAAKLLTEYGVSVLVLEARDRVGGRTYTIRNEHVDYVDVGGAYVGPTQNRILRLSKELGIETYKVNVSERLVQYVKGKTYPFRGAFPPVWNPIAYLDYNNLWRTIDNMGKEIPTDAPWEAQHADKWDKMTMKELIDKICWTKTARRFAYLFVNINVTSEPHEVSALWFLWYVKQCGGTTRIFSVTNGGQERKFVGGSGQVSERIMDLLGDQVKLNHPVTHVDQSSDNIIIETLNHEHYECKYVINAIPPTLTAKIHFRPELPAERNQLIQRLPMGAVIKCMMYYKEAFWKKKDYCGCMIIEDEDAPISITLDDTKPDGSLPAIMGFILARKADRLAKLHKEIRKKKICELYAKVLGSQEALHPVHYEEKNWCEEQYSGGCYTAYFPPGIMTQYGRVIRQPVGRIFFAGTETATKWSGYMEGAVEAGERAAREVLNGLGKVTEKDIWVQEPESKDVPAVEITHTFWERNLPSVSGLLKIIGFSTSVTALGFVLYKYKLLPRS
- testSummary: Inhibition of recombinant human MAO-A
Answer each item with its documented IC50.
# output: bare number, implied unit µM

Exercise: Value lookup for IC50; key = COc1cc(/C=C/C(=O)N2CCc3ccccc3C2)ccc1OC(=O)N(C)C
Key: 35.7

Exercise: Value lookup for IC50; key = CCN(C)C(=O)Oc1ccc(/C=C/C(=O)N2CCc3ccccc3C2)cc1
Key: 97.3

Exercise: Value lookup for IC50; key = COc1cc(/C=C/C(=O)N2CCN(Cc3ccccc3)CC2)ccc1OC(=O)N(C)C
Key: 39.1

Exercise: Value lookup for IC50; key = CCN(Cc1ccccc1)C(=O)/C=C/c1ccc(OC(=O)N(c2ccccc2)c2ccccc2)c(OC)c1
Key: 24.6

Exercise: Value lookup for IC50; key = COc1cc(/C=C/C(=O)N2CCC(Cc3ccccc3)CC2)ccc1OC(=O)N(C)C
Key: 16.3

Exercise: Value lookup for IC50; key = COc1cc(/C=C/C(=O)N2CCC(Cc3ccccc3)CC2)ccc1OC(=O)N(c1ccccc1)c1ccccc1
Key: 34.6

Exercise: Value lookup for IC50; key = COc1cc(/C=C/C(=O)N2CCN(Cc3ccccc3)CC2)ccc1OC(=O)N(c1ccccc1)c1ccccc1
Key: 14.7

Exercise: Value lookup for IC50; key = CCN(CC)C(=O)Oc1ccc(/C=C/C(=O)N2CCC(Cc3ccccc3)CC2)cc1OC
Key: 7.8

Exercise: Value lookup for IC50; key = CCN(C)C(=O)Oc1ccc(/C=C/C(=O)N2CCc3ccccc3C2)cc1OC
Key: 15.9

Exercise: Value lookup for IC50; key = CCN(C)C(=O)Oc1ccc(/C=C/C(=O)N2CCC(Cc3ccccc3)CC2)cc1OC
Key: 7.9

Exercise: Value lookup for IC50; key = CCN(C)C(=O)Oc1ccc(/C=C/C(=O)N2CCCCC2)cc1OC
Key: 29.6

Exercise: Value lookup for IC50; key = COc1cc(/C=C/C(=O)N2CCc3ccccc3C2)ccc1OC(=O)N(c1ccccc1)c1ccccc1
Key: 16.9

Exercise: Value lookup for IC50; key = CCN(CC)C(=O)/C=C/c1ccc(OC(=O)N(C)C)c(OC)c1
Key: 30.9

Exercise: Value lookup for IC50; key = CCN(C)C(=O)Oc1ccc(/C=C/C(=O)N2CCC(Cc3ccccc3)CC2)cc1
Key: 56.8

Exercise: Value lookup for IC50; key = CCN(CC)C(=O)Oc1ccc(/C=C/C(=O)N2CCc3ccccc3C2)cc1OC
Key: 8

Exercise: Value lookup for IC50; key = COc1cc(/C=C/C(=O)N2CCCCC2)ccc1OC(=O)N(c1ccccc1)c1ccccc1
Key: 46.2

Value source: ChEMBL document CHEMBL4680246
